test: Single ascending dose plasma pharmacokinetics (Part 1); assay type: in vivo, human; conditions: male, human, plasma, po, 16 mg; read-out: Cmax
Observable: Cmax (ng/mL)
Report the value in ng/mL with no unit label.

IN: Entry "C=C[C@@H]1C[C@]1(NC(=O)[C@@H]1C[C@@H](Oc2cc(-c3csc(NC(=O)C(C)C)n3)nc3c(Br)c(OC)ccc23)CN1C(=O)[C@@H](NC(=O)OC1CCCC1)C(C)(C)C)C(=O)O" : reported Cmax = ?
OUT: 22.8

###

test: Single ascending dose plasma pharmacokinetics (Part 1); assay type: in vivo, human; conditions: male, human, plasma, po, 480 mg; read-out: tmax
Observable: Tmax
Numeric answer plus unit only.

IN: Entry "C=C[C@@H]1C[C@]1(NC(=O)[C@@H]1C[C@@H](Oc2cc(-c3csc(NC(=O)C(C)C)n3)nc3c(Br)c(OC)ccc23)CN1C(=O)[C@@H](NC(=O)OC1CCCC1)C(C)(C)C)C(=O)O" : reported Tmax = ?
OUT: 4 h

Just for reference, paper PMC12440775 is where these values come from.
